- Tested on: RPMI-8226
- Procedure details: NCI tumour cell line growth inhibition, 48 h
Active and inactive are the calls of the source. No stated cut-off is given here; in the data, active = GI50 up to about 1.1 µM and inactive = higher.
Reply using exactly one outcome from active, inactive

Compound | Class name
COc1cc2ccc3c4c(OC)cc(OC)c(OC)c4c([O-])[n+](C)c3c2cc1OC | active
CCCCCC[C@H]1C(=O)O[C@H](C)[C@H](NC(=O)c2cccc(NC=O)c2OC)C(=O)O[C@@H](C)[C@@H]1OC(=O)C(C)CC.CCCCCC[C@H]1C(=O)O[C@H](C)[C@H](NC(=O)c2cccc(NC=O)c2OC)C(=O)O[C@@H](C)[C@@H]1OC(=O)CC(C)C (some centres undefined) | inactive
NC(=O)c1csc(CCCCCCc2nc(C(N)=O)cs2)n1 | inactive
COC1=CC(=O)C(C2(OC(C)C)OC(=O)C(Cl)=C2Cl)=CC1=O (centres undefined) | inactive
CN(C)C(=O)OC1=CC2CCC(C1)N2C (centres undefined) | inactive

Just curious, what result did CCC1CCN/C(=N/S(=O)(=O)c2cc(C)c(Cl)cc2S)N1 (centres undefined) get here?
inactive

Just curious, what result did OC1(c2ccc(Cl)cc2)c2c(ccc3c2OCO3)C2=NCCN21 (centres undefined) get here?
inactive

Just curious, what result did `COc1ccc(C2=N/C(=C\c3ccccc3)C(=O)O2)cc1` get here?
inactive
